S/N values, listed per item
- measurement-target: human GLP1R (Homo sapiens, UniProt P43220)
- Sequence (P43220 24-463): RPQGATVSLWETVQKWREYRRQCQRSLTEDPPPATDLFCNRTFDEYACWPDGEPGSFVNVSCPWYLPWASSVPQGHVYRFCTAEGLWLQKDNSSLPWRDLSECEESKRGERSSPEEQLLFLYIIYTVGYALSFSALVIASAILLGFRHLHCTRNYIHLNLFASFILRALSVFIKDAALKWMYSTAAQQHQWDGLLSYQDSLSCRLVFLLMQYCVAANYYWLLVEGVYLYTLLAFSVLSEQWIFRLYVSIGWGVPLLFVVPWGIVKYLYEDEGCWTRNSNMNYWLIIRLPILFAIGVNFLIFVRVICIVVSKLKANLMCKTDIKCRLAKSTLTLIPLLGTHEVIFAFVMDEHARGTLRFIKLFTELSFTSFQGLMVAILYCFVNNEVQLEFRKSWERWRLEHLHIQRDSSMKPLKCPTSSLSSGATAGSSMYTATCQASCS
- experimental-details: Luciferase reporter assay, HEK293/CRE-Luc/hGLP1R (Example 17)
- Assay type: cell-based
- Parameters: engineered to express full-length human GLP1R, cynomolgus GLP1R; expressed in transfected cells; host or cells: HEK293/CRE-Luc
- condition-context: HEK293/CRE-Luc/hGLP1R; highest RLU / RLU of untreated wells
Where a SMILES comes first, the peptide text is derived from it. [ ]: non-standard residue; d: D form. The star is where a group is joined. Bip(2'-Et,4'-O(CH2)4NH2) = CCc1cc(OCCCCN)ccc1-c1ccc(C[C@H](N)C(=O)O)cc1; Nva(5-(3,5-Me2Ph)) = Cc1cc(C)cc(CCC[C@H](N)C(=O)O)c1; Ala(1H-tetrazol-5-yl) = N[C@@H](Cc1nnn[nH]1)C(=O)O; αMePhe(2-F) = C[C@](N)(Cc1ccccc1F)C(=O)O; X2 = CC(C)(C(N)=O)C(=O)*
I only need the number, thanks.

CCc1cc(OCCCCN)ccc1-c1ccc(C[C@H](NC(=O)[C@H](CC(=O)O)NC(=O)[C@H](CO)NC(=O)[C@@H](NC(=O)[C@](C)(Cc2ccccc2F)NC(=O)[C@@H](NC(=O)CNC(=O)[C@H](Cc2nn[nH]n2)NC(=O)C(C)(C)C(N)=O)[C@@H](C)O)[C@@H](C)O)C(=O)N[C@@H](CCCc2cc(C)cc(C)c2)C(N)=O)cc1 [P4] (X2-[Ala(1H-tetrazol-5-yl)]GT[αMePhe(2-F)]TSD[Bip(2'-Et,4'-O(CH2)4NH2)][Nva(5-(3,5-Me2Ph))]-NH2)    66.9

Challenge: Lab note: need S/N for CCc1cc(OCCCCN)ccc1-c1ccc(C[C@H](NC(=O)[C@H](CC(=O)O)NC(=O)[C@H](CO)NC(=O)[C@@H](NC(=O)[C@](C)(Cc2ccccc2F)NC(=O)[C@@H](NC(=O)CNC(=O)[C@H](Cc2nn[nH]n2)NC(=O)[C@@]2(C)CCN(CCc3cnc[nH]3)C2=O)[C@@H](C)O)[C@@H](C)O)C(=O)N[C@@H](CCCc2cc(C)cc(C)c2)C(N)=O)cc1 [P15] on human GLP1R (Homo sapiens, UniProt P43220), anyone have it?
Response given: 67.8

Challenge: Lab note: need S/N for CCc1cc(OCCCCn2cc(COCCOCCOCCOCCOCCOCCOCCOCCN)nn2)ccc1-c1ccc(C[C@H](NC(=O)[C@H](CC(=O)O)NC(=O)[C@H](CO)NC(=O)[C@@H](NC(=O)[C@](C)(Cc2ccccc2F)NC(=O)[C@@H](NC(=O)CNC(=O)[C@H](Cc2nn[nH]n2)NC(=O)C(C)(C)C(=O)NCCc2cnc[nH]2)[C@@H](C)O)[C@@H](C)O)C(=O)N[C@@H](CCCc2cc(C)cc(C)c2)C(N)=O)cc1 [M3190] on human GLP1R (Homo sapiens, UniProt P43220), anyone have it?
Response given: 74.5

====

HEK293/CRE-LUC/hGLP1R S/N values, listed per item
- measurement-target: human GLP1R (Homo sapiens, UniProt P43220)
- experimental-details: Luciferase reporter assay, HEK293/CRE-Luc/hGLP1R cells (Example 11)
- Type: cell-based
- Design: engineered to express full-length human GLP1R, cynomolgus GLP1R; expressed in transfected cells; host or cells: HEK293/CRE-Luc
- condition-context: Table 11; Experiment A
Where a SMILES comes first, the peptide text is derived from it. [ ]: non-standard residue; d: D form. The star is where a group is joined. Bip(2'-Et,4'-O(CH2)4NH2) = CCc1cc(OCCCCN)ccc1-c1ccc(C[C@H](N)C(=O)O)cc1; Nva(5-(3,5-Me2Ph)) = Cc1cc(C)cc(CCC[C@H](N)C(=O)O)c1; Ala(1H-tetrazol-5-yl) = N[C@@H](Cc1nnn[nH]1)C(=O)O; αMePhe(2-F) = C[C@](N)(Cc1ccccc1F)C(=O)O; X1 = O=C(CCCCCc1cnc[nH]1)*; X2 = CC(C)(C(N)=O)C(=O)*

Example results:
CCc1cc(OCCCCN)ccc1-c1ccc(C[C@H](NC(=O)[C@H](CC(=O)O)NC(=O)[C@H](CO)NC(=O)[C@@H](NC(=O)[C@](C)(Cc2ccccc2F)NC(=O)[C@@H](NC(=O)CNC(=O)[C@H](CCC(N)=O)NC(=O)C(C)(C)C(=O)NCCc2cnc[nH]2)[C@@H](C)O)[C@@H](C)O)C(=O)N[C@@H](CCCc2cc(C)cc(C)c2)C(N)=O)cc1    58.8
CCc1cc(OCCCCn2cc(COCCOCCOCCOCCOCCOCCOCCOCCN)nn2)ccc1-c1ccc(C[C@H](NC(=O)[C@H](CC(=O)O)NC(=O)[C@H](CO)NC(=O)[C@@H](NC(=O)C(C)(Cc2ccccc2F)NC(=O)[C@@H](NC(=O)CNC(=O)[C@H](Cc2nn[nH]n2)NC(=O)C(C)(C)C(=O)NCCc2cnc[nH]2)[C@@H](C)O)[C@@H](C)O)C(=O)N[C@@H](CCCc2cc(C)cc(C)c2)C(N)=O)cc1 (some centres unmarked)    74.5
CCc1cc(OCCCCN)ccc1-c1ccc(C[C@H](NC(=O)[C@H](CC(=O)O)NC(=O)[C@H](CO)NC(=O)[C@@H](NC(=O)[C@](C)(Cc2ccccc2F)NC(=O)[C@@H](NC(=O)CNC(=O)[C@H](Cc2nn[nH]n2)NC(=O)C(C)(C)C(N)=O)[C@@H](C)O)[C@@H](C)O)C(=O)N[C@@H](CCCc2cc(C)cc(C)c2)C(N)=O)cc1 [P4] (X2-[Ala(1H-tetrazol-5-yl)]GT[αMePhe(2-F)]TSD[Bip(2'-Et,4'-O(CH2)4NH2)][Nva(5-(3,5-Me2Ph))]-NH2)    66.9
CCc1cc(OCCCCN)ccc1-c1ccc(C[C@H](NC(=O)[C@H](CC(=O)O)NC(=O)[C@H](CO)NC(=O)[C@@H](NC(=O)[C@](C)(Cc2ccccc2F)NC(=O)[C@@H](NC(=O)CNC(=O)[C@H](Cc2nn[nH]n2)NC(=O)CCCCCc2cnc[nH]2)[C@@H](C)O)[C@@H](C)O)C(=O)N[C@@H](CCCc2cc(C)cc(C)c2)C(N)=O)cc1 [P11] (X1-[Ala(1H-tetrazol-5-yl)]GT[αMePhe(2-F)]TSD[Bip(2'-Et,4'-O(CH2)4NH2)][Nva(5-(3,5-Me2Ph))]-NH2)    54.8

Challenge: Lab note: need HEK293/CRE-LUC/hGLP1R S/N for CCc1cc(OCCCCN)ccc1-c1ccc(C[C@H](NC(=O)[C@H](CC(=O)O)NC(=O)[C@H](CO)NC(=O)[C@@H](NC(=O)[C@](C)(Cc2ccccc2F)NC(=O)[C@@H](NC(=O)CNC(=O)[C@H](Cc2nn[nH]n2)NC(=O)[C@@]2(C)CCN(CCc3cnc[nH]3)C2=O)[C@@H](C)O)[C@@H](C)O)C(=O)N[C@@H](CCCc2cc(C)cc(C)c2)C(N)=O)cc1 on human GLP1R (Homo sapiens, UniProt P43220), anyone have it?
Response given: 67.8

====

pEC50 values, listed per item
- measurement-target: human GLP1R (Homo sapiens)
- experimental-details: Human GLP1R cAMP accumulation assay
- Assay type: cell-based
- Set-up: HEK293 cells over-expressing full length human GLP-1R were utilized; expressed in transfected cells; host or cells: HEK293 (HEK293/hGLP1R)
- condition-context: HEK293/hGLP1R cells; Table 4; read-out: cAMP EC50
Where a SMILES comes first, the peptide text is derived from it. [ ]: non-standard residue; d: D form. The star is where a group is joined. Bip(2'-Et,4'-O(CH2)4NH2) = CCc1cc(OCCCCN)ccc1-c1ccc(C[C@H](N)C(=O)O)cc1; Nva(5-(3,5-Me2Ph)) = Cc1cc(C)cc(CCC[C@H](N)C(=O)O)c1; Ala(1H-tetrazol-5-yl) = N[C@@H](Cc1nnn[nH]1)C(=O)O; αMePhe(2-F) = C[C@](N)(Cc1ccccc1F)C(=O)O; X4 = CC(C)(C(=O)O)C(=O)*
Answer as the number alone; pEC50 is minus log10 of concentration in mol/L.

CCc1cc(OCCCCn2cc(COCCOCCOCCOCCNC(=O)CCC(=O)N3Cc4ccccc4C#Cc4ccccc43)nn2)ccc1-c1ccc(C[C@H](NC(=O)[C@H](CC(=O)O)NC(=O)[C@H](CO)NC(=O)[C@@H](NC(=O)[C@](C)(Cc2ccccc2F)NC(=O)[C@@H](NC(=O)CNC(=O)[C@H](Cc2nn[nH]n2)NC(=O)C(C)(C)C(=O)NCCc2cnc[nH]2)[C@@H](C)O)[C@@H](C)O)C(=O)N[C@@H](CCCc2cc(C)cc(C)c2)C(N)=O)cc1    9.39
CCc1cc(OCCCCN)ccc1-c1ccc(C[C@H](NC(=O)[C@H](CC(=O)O)NC(=O)[C@H](CO)NC(=O)[C@@H](NC(=O)[C@](C)(Cc2ccccc2F)NC(=O)[C@@H](NC(=O)CNC(=O)[C@H](Cc2nn[nH]n2)NC(=O)C(C)(C)C(=O)O)[C@@H](C)O)[C@@H](C)O)C(=O)N[C@@H](CCCc2cc(C)cc(C)c2)C(N)=O)cc1 [P3] (X4-[Ala(1H-tetrazol-5-yl)]GT[αMePhe(2-F)]TSD[Bip(2'-Et,4'-O(CH2)4NH2)][Nva(5-(3,5-Me2Ph))]-NH2)    8.84

Now look at this one.
Challenge: Please give the measured pEC50 for this compound: CCc1cc(OC)ccc1-c1ccc(C[C@H](NC(=O)[C@H](CC(=O)O)NC(=O)[C@H](CO)NC(=O)C(NC(=O)[C@](C)(Cc2ccccc2F)NC(=O)[C@@H](NC(=O)CNC(=O)[C@H](Cc2nn[nH]n2)NC(=O)C(C)(C)C(=O)NCCc2cnc[nH]2)[C@@H](C)O)[C@@H](C)O)C(=O)N[C@@H](CCCc2ccc(OCCCCN)cc2)C(N)=O)cc1 (stereo in doubt)
Response given: 9.87
